Values were extracted from patent US20050282743A1.

Recorded Classification values for a group of binders are listed next.
- system: T1, GST-EZRIN Binding Protein 50 PDZ domain 1 (Homo sapiens (Human)), O14745
- T1 chain: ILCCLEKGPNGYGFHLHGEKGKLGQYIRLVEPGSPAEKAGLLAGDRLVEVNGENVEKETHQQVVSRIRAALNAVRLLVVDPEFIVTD
- measurement-protocol: G' assay; note: key of the grades not given here
readout-kind: Classification (A450 class)

1. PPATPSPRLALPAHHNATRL (modifications not checked) [Na+/Pi cotransporter 2]: 5
2. AWDDSARAAGGQGLHVTAL (modifications not checked) [LPAP]: 5
3. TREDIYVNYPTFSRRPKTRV (modifications not checked) [DNAM-1]: 1
4. TFAAGFNSTGLPHSTTRV (modifications not checked) [Neuroligin]: 2
5. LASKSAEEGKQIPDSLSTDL (modifications not checked) [DOCK2]: 1
6. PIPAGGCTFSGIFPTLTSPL (modifications not checked) [KIA 1481]: 2
7. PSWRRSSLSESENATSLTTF (modifications not checked) [BLR-1]: 3
8. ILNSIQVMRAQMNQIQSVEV (modifications not checked) [ephrin B2]: 1
